molecular target: T1, Human TIM-3 Human Fc tagged protein (human, fluorescently labeled with HiLyte Fluor 555 (sites not given)); experiment: capture slide probed with labeled TIM-3-Fc;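 further: IgG from single CD138-enriched plasma cells, isolated from lymphocytes, immobilized on a derivatized glass slide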
T1 construct: Bought construct; also called TIM-3 protein tagged with human Fc; ACROBiosystems catalog no: TM3-H5258
VALUE TYPE: binding result

Use the examples below as a reference point.
>>> result("SCT-Fa153 (antibody, V domains shown, murine IgG) VH: QVQLQQPGTELVKPGASVKVSCKASGYTFISYWMHWVKQRPGQGLDWIGNIDPNNGGTNYNEKFKSKATLTVDKSSSTAYMQLSSLTSEDSAVYYCARWGWDGFAYWGQGTLVTVSA VL: DAVMTQTPLSLPVSLGDQASISCRSSQSLENSYGNTYLNWYLQKPGQSPQLLIYRVSTRFSGVLDRFSGSGSGTDFTLKISRVEAEDLGVYFCLQVTHVPYTFGGGTKLEIK")
"binds"
>>> result("SCT-Fa072 (antibody, V domains shown, murine IgG) VH: EVQLVESGGDLVKPGGSLKLSCAASGFTFSDYGMSWVRQTPDKRLEWVATISSGGSYTYYADSVKGRFTISRDNAKNTLYLQMSSLKSEDTAMYFCTRHEITTVLSTDYAMDYWGQGTSVTVSS VL: DVVMTQTPLSLPVSLGDQASISCRSSQSLVHSIGNTYLHWYLQKPGQSPKLLIYKVSNRFSGVPDRFSGSGSGTDFTLKIIRVEAEDLGVYFCSQSTHIPWTFGGGTKLELR")
"binds"
>>> result("SCT-Fa104 (antibody, V domains shown, murine IgG) VH: QVQLKQSGAELVRPGTSVKLSCKASGYTLTDYYINWVKQRPGQGLEWIARIYPGNGNTYYNEKFKCKATLTAEKSSSTVNMQVTSLTSEDSAIYFCARGGSSDRIYYYAMDYWGQGTSVTVSS VL: DIQMNQSPSSLSASLGDTITITCHASQNINVWLSWYQQKPGNIPKLLIYKASNLHTGVPSRFSGSGSGTGFTLTISSLQPEDIATYYCQQGQSYPLTFGSGTKLEVK")
"binds"
>>> result("SCT-Fa161 (antibody, V domains shown, murine IgG) VH: QVQLQQPGTELVKPGASVKVSCKASGYTFISYWMHWVKQRPGQGLEWIGNIDPNYGGPNYNEKFKTKATLTVDKSSSTAYMQLSSLTSEDSAVYYCARWGWDGFAYWGQGTLVTVSA VL: QIVLTQSPALMSASPGEKVTMTCSASSSVSYMYWYQQKPRSSPKPWIYLTSNLASGVPARFSGSGSGTSYSLTISSMEAEDAATYYCQQWSSNPFTFGSGTKLEIK")
"binds"

Moving on to another binder below.
Noted for SCT-Fa122 (antibody, V domains shown, murine IgG) VH: QVQLQQPGAELVMPGASVKLSCEASGYTFTTFWIHWVKQRPGQGLEWIGEIDPSDSYTNYNQNFKGKATLTVDKSSSTAYLQLSSLTSEDSAVYYCARNYGSNYVGYFDYWGQGTTLTVSS VL: DIQMTQTTSSLSASLGDRVTISCRASQDISNYLNWYQQKPDGTVKLLIYYTSRLHSGVPSSFSGSGSGTDYSLTISNLEQEDIAIYFCQQANALPWTFGGGTKLEIK : its binding result reads binds

Reference source: patent US20230279105A1
